- systemTested: T1, mouse DLL4 on cells (mouse, UniProt Q9JI71 27-686)
- T1 construct: whole, on cells; also called mouse DLL4-293G; mu DLL4 cells
- T1 sequence (Q9JI71 27-686): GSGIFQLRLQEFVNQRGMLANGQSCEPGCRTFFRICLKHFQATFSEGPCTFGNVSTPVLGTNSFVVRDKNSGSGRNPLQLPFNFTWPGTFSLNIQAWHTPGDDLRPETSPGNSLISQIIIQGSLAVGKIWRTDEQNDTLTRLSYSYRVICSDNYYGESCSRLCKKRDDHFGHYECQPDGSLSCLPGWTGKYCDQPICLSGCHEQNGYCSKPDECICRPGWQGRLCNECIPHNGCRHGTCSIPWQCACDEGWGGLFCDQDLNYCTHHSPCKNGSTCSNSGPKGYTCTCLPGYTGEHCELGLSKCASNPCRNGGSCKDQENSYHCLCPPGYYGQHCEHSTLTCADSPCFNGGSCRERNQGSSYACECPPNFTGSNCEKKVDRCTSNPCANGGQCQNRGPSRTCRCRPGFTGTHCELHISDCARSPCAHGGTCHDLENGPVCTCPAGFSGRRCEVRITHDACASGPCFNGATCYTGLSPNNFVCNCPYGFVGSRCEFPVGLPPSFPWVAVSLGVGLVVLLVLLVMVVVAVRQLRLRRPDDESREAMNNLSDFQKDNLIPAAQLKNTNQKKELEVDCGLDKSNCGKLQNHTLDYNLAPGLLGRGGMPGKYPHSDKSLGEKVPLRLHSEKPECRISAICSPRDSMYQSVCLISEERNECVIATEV
- assayInfo: FACS, DLL4 cells
valueType: pEC50
Schema: pEC50 number; meaning minus log10 of the concentration expressed in molar units.

Task: pEC50 for 15D6 rat anti-DLL4 monoclonal antibody (antibody, rat IgG2a, V domains shown, rat IgG2a/K hybridoma mAb; also called MC13-15D6.1G7) VH: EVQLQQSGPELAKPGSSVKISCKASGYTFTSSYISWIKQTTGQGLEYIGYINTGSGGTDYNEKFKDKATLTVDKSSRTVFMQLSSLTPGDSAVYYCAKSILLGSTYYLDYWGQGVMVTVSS VL: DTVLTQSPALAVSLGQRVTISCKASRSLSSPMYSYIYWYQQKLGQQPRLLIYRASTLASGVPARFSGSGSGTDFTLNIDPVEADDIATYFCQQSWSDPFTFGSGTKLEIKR ?
Output: 8.80

Task: Field entry: 32C7 rat anti-DLL4 monoclonal antibody (antibody, rat IgG2a, V domains shown, rat IgG2a/k hybridoma mAb; also called MC10-32C7.5A4) VH: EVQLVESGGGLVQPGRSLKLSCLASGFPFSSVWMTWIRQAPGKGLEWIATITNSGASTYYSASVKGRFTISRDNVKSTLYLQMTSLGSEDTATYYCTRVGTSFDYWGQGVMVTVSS VL: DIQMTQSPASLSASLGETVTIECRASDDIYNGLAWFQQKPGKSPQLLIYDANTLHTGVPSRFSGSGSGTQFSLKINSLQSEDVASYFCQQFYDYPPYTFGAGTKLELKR
Output: 9.10

Task: Repeat with 1A11 rat anti-DLL4 monoclonal antibody (antibody, rat IgG1, V domains shown, rat IgG1/K hybridoma mAb; also called MC13-1A11.2E1; 1A11 (rat mAb)) VH: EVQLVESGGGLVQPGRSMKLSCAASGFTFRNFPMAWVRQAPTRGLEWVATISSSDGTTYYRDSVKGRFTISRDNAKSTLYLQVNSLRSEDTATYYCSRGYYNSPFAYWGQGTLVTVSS VL: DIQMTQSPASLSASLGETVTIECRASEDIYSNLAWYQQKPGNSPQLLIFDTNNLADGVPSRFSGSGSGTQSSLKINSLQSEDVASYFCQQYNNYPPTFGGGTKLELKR
Output: 9.10

Task: Please give the result for 14A11 rat anti-DLL4 monoclonal antibody (antibody, rat IgG2a, V domains shown, rat IgG2a/K hybridoma mAb; also called MC13-14A11.3A4) VH: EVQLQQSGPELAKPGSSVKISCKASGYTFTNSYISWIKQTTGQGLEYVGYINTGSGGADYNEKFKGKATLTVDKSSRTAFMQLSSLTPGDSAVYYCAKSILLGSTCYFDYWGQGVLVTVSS VL: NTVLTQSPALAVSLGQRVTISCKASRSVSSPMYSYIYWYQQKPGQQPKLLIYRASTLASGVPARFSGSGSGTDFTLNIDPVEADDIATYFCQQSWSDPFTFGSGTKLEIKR too.
Output: 8.68

Task: Now this one: 37D10 rat anti-DLL4 monoclonal antibody (antibody, rat IgG2a, V domains shown, rat IgG2a/k hybridoma mAb; also called 40B10; 37D10 = 40B10) VH: AVQLVESGGGLVQPKESLKISCAASGFTFSNAAMYWVRLAPGKGLEWVARIRTKPNNYATYYAESVKGRFTISRDDSKSMVYVQMDNLKTEDTAMYYCTAAPWRDSYAHVYWGQGVMVTVSS VL: DIQMTQSPPVLSASVGDRVTLSCKASQNIHKNLDWYQQKHGDAPKLLIYYTDHLQTGVPSRFSGSGSATDYTLTISSLQPEDVATYYCYQYNGGPFTFGSGTKLEIKR
Output: 9.15

Values from patent US20110217237A1
